# Test system: Influenza type A (strain A/PR/8/34, ATCC VR-95)
# measurement.description: Influenza antiviral assay: inhibition of virus-induced cytopathic effects (CPE) in MDCK cells, XTT dye reduction
# Type: cell-based
# measurement.context: Influenza A virus, H1N1 / PR/8, MDCK, 96 h, strain A/PR/8/34, MDCK cells, CPE inhibition at 4 days
pEC50: −log10 of the molar value.
Could you please report measured pEC50 for the items listed next?

Lookup: Give the reported value of pEC50 for this record: CCN1CN(C23c4cccc(F)c4CC2(C)Cc2c(F)cccc23)n2ccc(=O)c(O)c2C1=O (stereo not drawn)
Found: > 6.90

Lookup: Give the reported value of pEC50 for this record: O=C1c2c(O)c(=O)ccn2N(C23c4ccccc4CC2Cc2cc(F)c(F)cc23)CN1CC1CCOCC1 (stereo not drawn)
Found: > 6.90

Lookup: Give the reported value of pEC50 for this record: CCN1CN(C23c4ccccc4CC2(CC)Cc2c3ccc(F)c2F)n2ccc(=O)c(O)c2C1=O (stereo not drawn)
Found: > 6.90

Lookup: Give the reported value of pEC50 for this record: O=C1c2c(O)c(=O)ccn2N(C23c4ccccc4CC2Cc2cc(F)c(F)cc23)CN1CC1CC1 (stereo not drawn)
Found: > 6.90

Lookup: Give the reported value of pEC50 for this record: COCCN1CN(C23c4ccccc4CC2Cc2ccccc23)n2ccc(=O)c(O)c2C1=O (stereo not drawn)
Found: 6.60 to 6.90

Lookup: Give the reported value of pEC50 for this record: O=C1c2c(O)c(=O)ccn2N(C23c4ccccc4CC2Cc2ccccc23)CN1CCOc1ccccc1 (stereo not drawn)
Found: < 6.30

Lookup: Give the reported value of pEC50 for this record: O=C1c2c(O)c(=O)ccn2N(C23c4ccccc4CC2Cc2c(Cl)cccc23)CN1CC1CC1 (stereo not drawn)
Found: 6.43 to 6.60

Lookup: Give the reported value of pEC50 for this record: CN1CN(C23c4ccc(F)cc4CC2Cc2cc(F)ccc23)n2ccc(=O)c(O)c2C1=O (stereo not drawn)
Found: 6.60 to 6.90

Lookup: Give the reported value of pEC50 for this record: COCCN1C(=O)c2c(O)c(=O)ccn2N(C23c4ccccc4CC2Cc2c(F)cccc23)C1C (stereo not drawn)
Found: 6.30 to 6.43

Lookup: Give the reported value of pEC50 for this record: CCN1CN(C23c4ccccc4CC2Cc2c3ccc(F)c2F)n2ccc(=O)c(O)c2C1=O (stereo not drawn)
Found: > 6.90

Lookup: Give the reported value of pEC50 for this record: CN1CN(C23c4ccccc4CC2(C)Cc2cc(F)ccc23)n2ccc(=O)c(O)c2C1=O (stereo not drawn)
Found: 6.60 to 6.90

Lookup: Give the reported value of pEC50 for this record: CN1CN(C23c4ccccc4CC2(C(F)F)Cc2ccccc23)n2ccc(=O)c(O)c2C1=O (stereo not drawn)
Found: 6.60 to 6.90

---

Could you please report measured EC50 for the items listed next?
# Test system: Influenza type A (strain A/PR/8/34, ATCC VR-95)
# measurement.description: Influenza antiviral assay: inhibition of virus-induced cytopathic effects (CPE) in MDCK cells, XTT dye reduction
# Format: cell-based
# measurement.context: Influenza A virus, H1N1 / PR/8, MDCK, 96 h, strain A/PR/8/34, MDCK cells, CPE inhibition at 4 days

Lookup: Write EC50 of O=C1c2c(O)c(=O)ccn2N(C23c4ccccc4CC2Cc2ccccc23)CN1Cc1ccccc1 (stereo not drawn) [Compound A4] ; system used: Influenza type A (strain A/PR/8/34, ATCC VR-95)
Found: > 0.5 µM

Lookup: Write EC50 of O=C1c2c(O)c(=O)ccn2N(C23c4ccccc4CC2Cc2ccccc23)CN1CC1CC1 (stereo not drawn) [Compound A2] ; system used: Influenza type A (strain A/PR/8/34, ATCC VR-95)
Found: 0.125 to 0.25 µM

Lookup: Write EC50 of O=C1c2c(O)c(=O)ccn2N(C23c4ccccc4CC2Cc2c(Cl)cccc23)CN1C1CCC1 (stereo not drawn) [Compound A103] ; system used: Influenza type A (strain A/PR/8/34, ATCC VR-95)
Found: 0.25 to 0.375 µM

Where do these numbers come from? They come from patent US12037333B2.
